# SYSTEM: Human plasma kallikrein (Homo sapiens (Human))
# Sequence (P03952 391-638): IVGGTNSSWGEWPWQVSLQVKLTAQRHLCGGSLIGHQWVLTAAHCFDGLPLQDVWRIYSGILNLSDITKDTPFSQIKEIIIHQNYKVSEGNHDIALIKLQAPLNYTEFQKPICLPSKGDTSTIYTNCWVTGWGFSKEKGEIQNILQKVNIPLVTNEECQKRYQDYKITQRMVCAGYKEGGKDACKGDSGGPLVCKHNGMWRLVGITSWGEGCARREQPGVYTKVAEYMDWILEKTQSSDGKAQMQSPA
# Sequence (P03952 20-390): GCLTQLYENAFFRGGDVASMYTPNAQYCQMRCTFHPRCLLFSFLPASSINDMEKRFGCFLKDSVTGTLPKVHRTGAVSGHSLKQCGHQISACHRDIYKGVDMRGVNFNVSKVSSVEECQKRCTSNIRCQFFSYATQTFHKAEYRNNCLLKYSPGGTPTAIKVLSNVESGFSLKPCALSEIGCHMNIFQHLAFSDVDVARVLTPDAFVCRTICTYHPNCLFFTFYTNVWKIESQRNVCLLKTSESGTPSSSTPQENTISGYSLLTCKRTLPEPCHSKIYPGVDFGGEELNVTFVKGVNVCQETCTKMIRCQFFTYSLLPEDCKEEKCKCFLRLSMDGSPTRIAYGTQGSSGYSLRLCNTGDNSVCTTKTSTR
# METHOD NOTES: Determination of the IC50 for plasma kallikrein
# REPORTED CONDITIONS: 25° C., substrate H-DPro-Phe-Arg-AFC; read-out: IC50 (human PKal)
QUANTITY KIND: pIC50
Keep in mind that pIC50 stands for -log10 of concentration in molar terms.

Some molecules with recorded pIC50:
COCc1nn(Cc2ccc(Cn3ccccc3=O)cc2)cc1C(=O)NCc1cc(OC)c(C)cn1 [Example 20] ... 5.49
COCc1nn(Cc2ccc(Cn3cc(C)cn3)cc2)cc1C(=O)NCc1cc(OC)ccc1-n1cnnn1 [Example 61] ... 8.77
COCc1nn(Cc2ccc(Cn3ccccc3=O)cc2)cc1C(=O)NCc1ncc(F)cc1F [Example 26] ... 5.75
COCc1nn(Cc2ccc(Cn3ccccc3=O)cc2)cc1C(=O)NCc1nccc(C)c1F [Example 28] ... 6.79
COCc1nn(Cc2ccc(Cn3ccccc3=O)cc2)cc1C(=O)NCc1c(Cl)cccc1-n1cnnn1 [Example 73] ... 7.64

pIC50 lookup needed for COc1ccnc(CNC(=O)c2cn(Cc3ccc(Cn4ccccc4=O)cc3)nc2C(F)(F)F)c1F [Example 6] , thanks. 8.49

pIC50 lookup needed for COc1ccc(F)c(CNC(=O)c2cn(Cc3ccc(Cn4ccccc4=O)cc3)nc2N)c1F [Example 35] , thanks. 8.77

pIC50 lookup needed for COCc1nn(Cc2ccc(Cn3ccccc3=O)cc2)cc1C(=O)NCc1cc(OC)ncn1 [Example 4] , thanks. 5.64

pIC50 lookup needed for COCc1nn(Cc2cnc(N3CCCC3)nc2)cc1C(=O)NCc1c(C#N)ccc(OC)c1F [Example 58] , thanks. 7.24

pIC50 lookup needed for COCc1nn(Cc2ccc(Cn3ccccc3=O)cc2)cc1C(=O)NCc1c(-n2cnnn2)ccc(OC)c1F [Example 39] , thanks. 9.22

pIC50 lookup needed for COCc1nn(Cc2ccc(Cn3ccccc3=O)cc2)cc1C(=O)NCc1nccc(OC)c1C [Example 22] , thanks. 8.31

pIC50 lookup needed for COCc1nn(Cc2ccc(CN3CCCCC3=O)cc2)cc1C(=O)NCc1c(C#N)ccc(OC)c1F [Example 57] , thanks. 7.55

pIC50 lookup needed for COCc1nn(Cc2ccc(Cn3ccccc3=O)cc2)cc1C(=O)NCc1cc(Cl)ccc1-n1cnnn1 [Example 72] , thanks. 9.15

pIC50 lookup needed for O=C(NCc1c(F)cccc1-n1cnnn1)c1cn(Cc2ccc(Cn3ccccc3=O)cc2)nc1C(F)(F)F [Example 64] , thanks. 9.22

pIC50 lookup needed for COCc1nn(Cc2ccc(N3CCCC3)nc2)cc1C(=O)NCc1c(-n2cnnn2)ccc(OC)c1F [Example 77] , thanks. 8.85

pIC50 lookup needed for COCc1nn(Cc2ccc(Cn3cccn3)cc2)cc1C(=O)NCc1cccc(Cl)c1 [Reference Example I, reference compound] , thanks. 5.70

---

# METHOD NOTES: Intrinsic clearance in human liver microsomes
# Assay type: in vitro ADME
# REPORTED CONDITIONS: human liver microsomes 0.5 mg/mL, 5 μM test compound, 37° C.; read-out: Human liver microsome (Clint μL/min/mg protein)
QUANTITY KIND: microsomal CLint at 5 μM (µL/min/mg)
Hi! Could you send only the number? It should be in µL/min/mg, unit omitted.

Some molecules with recorded microsomal CLint at 5 μM:
COCc1nn(Cc2ccc(Cn3ccccc3=O)cn2)cc1C(=O)NCc1c(C#N)ccc(OC)c1F [Example 51] ... 30
COCc1nn(Cc2cnc(N3CCCC3)nc2)cc1C(=O)NCc1cc(OC)ccc1-n1cnnn1 [Example 80] ... 14
Nc1nn(Cc2ccc(Cn3ccccc3=O)cc2)cc1C(=O)NCc1cc(Cl)ccc1-n1cnnn1 [Example 71] ... 17
COCc1nn(Cc2cnc(N3CCCC3)nc2)cc1C(=O)NCc1c(-n2cnnn2)ccc(OC)c1F [Example 79] ... 4

microsomal CLint at 5 μM lookup needed for COCc1nn(Cc2ccc(Cn3cccn3)cc2)cc1C(=O)NCc1cccc(Cl)c1 [Reference Example I, reference compound] , thanks. 77

microsomal CLint at 5 μM lookup needed for O=C(NCc1c(F)cccc1-n1cnnn1)c1cn(Cc2ccc(Cn3ccccc3=O)cc2)nc1C(F)(F)F [Example 64] , thanks. 35

microsomal CLint at 5 μM lookup needed for COCc1nn(Cc2ccc(Cn3ccccc3=O)cc2)cc1C(=O)NCc1cc(OC)ccc1C#N [Example 37] , thanks. 48

---

# METHOD NOTES: Intrinsic clearance in rat liver microsomes
# Type: in vitro ADME
# REPORTED CONDITIONS: rat liver microsomes 0.5 mg/mL, 5 μM test compound, 37° C.; read-out: rat liver microsome (Clint μL/min/mg protein)
Catalogue of microsomal CLint at 5 μM values
Hi! Could you send only the number? It should be in µL/min/mg, unit omitted.

Some compounds with recorded microsomal CLint at 5 μM:
COCc1nn(Cc2ccc(Cn3ccccc3=O)cc2)cc1C(=O)NCc1cc(OC)ccc1-n1cnnn1 [Example 40] ... 47
COc1ccnc(CNC(=O)c2cn(Cc3ccc(Cn4ccccc4=O)cc3)nc2N(C)C)c1F [Example 7] ... 8
Nc1nn(Cc2ccc(Cn3ccccc3=O)cc2)cc1C(=O)NCc1cc(Cl)ccc1-n1cnnn1 [Example 71] ... 17
COc1ccc(C#N)c(CNC(=O)c2cn(Cc3ccc(Cn4ccccc4=O)cc3)nc2N)c1F [Example 43] ... 5
COCc1nn(Cc2ccc(Cn3ccccc3=O)cc2)cc1C(=O)NCc1c(-n2cnnn2)ccc(OC)c1F [Example 39] ... 19
COCc1nn(Cc2ccc(Cn3ccccc3=O)cc2)cc1C(=O)NCc1c(F)cccc1-n1cnnn1 [Reference Example H, reference compound] ... 94

microsomal CLint at 5 μM lookup needed for COCc1nn(Cc2ccc(Cn3ccccc3=O)cc2)cc1C(=O)NCc1cc(OC)ccc1C#N [Example 37] , thanks. 73

microsomal CLint at 5 μM lookup needed for COCc1nn(Cc2ccc(Cn3cc(F)ccc3=O)cc2)cc1C(=O)NCc1c(C#N)ccc(OC)c1F [Example 53] , thanks. 77

microsomal CLint at 5 μM lookup needed for COCc1nn(Cc2cnc(N3CCC(F)(F)C3)nc2)cc1C(=O)NCc1c(-n2cnnn2)ccc(OC)c1F [Example 86] , thanks. 35

microsomal CLint at 5 μM lookup needed for COCc1nn(Cc2ccc(Cn3ccccc3=O)cn2)cc1C(=O)NCc1c(C#N)ccc(OC)c1F [Example 51] , thanks. 25

microsomal CLint at 5 μM lookup needed for COCc1nn(Cc2ccc(Cn3cc(C)cn3)cc2)cc1C(=O)NCc1cc(OC)ccc1-n1cnnn1 [Example 61] , thanks. 132

---

Consider the following pIC50 values measured on Human KLK1 (Homo sapiens (Human), UniProt P06870).
Sequence (P06870 25-262): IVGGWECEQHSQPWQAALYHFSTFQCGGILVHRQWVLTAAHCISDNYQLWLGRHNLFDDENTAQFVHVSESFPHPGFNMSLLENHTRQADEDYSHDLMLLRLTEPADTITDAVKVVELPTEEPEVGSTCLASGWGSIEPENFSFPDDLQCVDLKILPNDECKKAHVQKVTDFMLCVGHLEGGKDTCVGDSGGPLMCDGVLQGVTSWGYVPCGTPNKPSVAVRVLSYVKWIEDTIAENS
pIC50: −log10 of the molar value.

Some compounds with recorded pIC50:
COCc1nn(Cc2ccc(Cn3ccccc3=O)cc2)cc1C(=O)NCc1cc(OC)ccc1-n1cnnn1 [Example 40] ... < 4.40
COCc1nn(Cc2ccc(Cn3cc(C)cn3)cc2)cc1C(=O)NCc1nccc(OC)c1F [Example 1] ... < 4.40
COc1ccc(-n2cnnn2)c(CNC(=O)c2cnn(Cc3cnc(N4CCCC4)nc3)c2)c1F [Reference Example K, reference compound] ... < 4.40
COCc1nn(Cc2ccc(Cn3cc(C)cn3)cc2)cc1C(=O)NCc1cc(OC)ccc1-n1cnnn1 [Example 61] ... < 5.40
COCc1nn(Cc2ccc(Cn3ccccc3=O)cc2)cc1C(=O)NCc1ncc(Cl)cc1C#N [Example 16] ... < 4.40
COc1cccc(CNC(=O)c2cn(Cc3ccc(Cn4ccccc4=O)cc3)nc2N)c1F [Reference Example B, reference compound] ... < 5.00
COCc1nn(Cc2ccc(Cn3ccccc3=O)cc2)cc1C(=O)NCc1nccc(OC)c1F [Reference Example D, reference compound] ... < 4.40
COCc1nn(Cc2cnc3cc(Cl)ccc3c2)cc1C(=O)NCc1cccc(OC)c1F [Reference Example C, reference compound] ... < 5.00

Notebook: pull reported pIC50 for Human KLK1 (Homo sapiens (Human), UniProt P06870), entry COCc1nn(Cc2ccc(Cn3ccccc3=O)cc2)cc1C(=O)NCc1cc(OC)ccc1C#N [Example 37] < 4.40

Notebook: pull reported pIC50 for Human KLK1 (Homo sapiens (Human), UniProt P06870), entry COCc1nn(Cc2ccc(Cn3ccccc3=O)cc2)cc1C(=O)NCc1c(C(N)=O)ccc(OC)c1F [Example 42] < 5.40

Notebook: pull reported pIC50 for Human KLK1 (Homo sapiens (Human), UniProt P06870), entry COCc1nn(Cc2ccc(Cn3ccccc3=O)cc2)cc1C(=O)NCc1nccc(OC)n1 [Example 10] < 4.40

Notebook: pull reported pIC50 for Human KLK1 (Homo sapiens (Human), UniProt P06870), entry COCc1nn(Cc2ccc(Cn3ccccc3=O)cc2)cc1C(=O)NCc1nccc(C)c1F [Example 28] < 4.40

Notebook: pull reported pIC50 for Human KLK1 (Homo sapiens (Human), UniProt P06870), entry COCc1nn(Cc2ccc(Cn3ccccc3=O)cc2)cc1C(=O)NCc1nccc(OC)c1C [Example 22] < 4.40

Notebook: pull reported pIC50 for Human KLK1 (Homo sapiens (Human), UniProt P06870), entry COc1ccnc(CNC(=O)c2cn(Cc3ccc(Cn4ccccc4=O)cc3)nc2C(F)(F)F)c1F [Example 6] < 5.40

Notebook: pull reported pIC50 for Human KLK1 (Homo sapiens (Human), UniProt P06870), entry COCc1nn(Cc2ccc(Cn3ccccc3=O)cc2)cc1C(=O)NCc1cc(OC)ncc1C#N [Example 8] < 5.40
